Data credit: patent US6288070A

target: adenosine A2 receptor (Rattus norvegicus, UniProt P30543); construct: from tissue; test: Adenosine A2 receptor binding capacity
Sequence (P30543 whole entry): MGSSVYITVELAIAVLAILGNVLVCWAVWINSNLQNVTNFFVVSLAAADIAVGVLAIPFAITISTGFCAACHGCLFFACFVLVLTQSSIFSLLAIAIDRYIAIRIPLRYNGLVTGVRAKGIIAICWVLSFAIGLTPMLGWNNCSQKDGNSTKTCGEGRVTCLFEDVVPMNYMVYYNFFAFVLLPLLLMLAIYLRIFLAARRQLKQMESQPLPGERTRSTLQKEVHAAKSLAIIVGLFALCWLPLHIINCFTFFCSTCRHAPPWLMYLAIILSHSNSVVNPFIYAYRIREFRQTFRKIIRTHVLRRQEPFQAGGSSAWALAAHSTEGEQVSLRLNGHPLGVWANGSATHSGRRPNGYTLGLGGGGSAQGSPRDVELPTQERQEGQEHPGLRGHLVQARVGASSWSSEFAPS
property_name: IC50

CCCCc1nc2nc[nH]c2c2nc(-c3ccc(CP(=O)(OCC)OCC)cc3)nn12	> 10 µM

---

molecular target: adenosine A2 receptor (Rattus norvegicus); construct: from tissue; assay: Adenosine A2 receptor binding capacity; details: adenosine A2 receptor; read-out: Receptor binding capacity (IC50) Adenosine A2
property_name: IC50

CCCCc1nc2nc[nH]c2c2nc(-c3ccc(NCc4ccccc4)cc3)nn12 [Example 61]	1800 nM
COc1cc(-c2nc3c4[nH]cnc4nc(-c4ccccc4)n3n2)cc(OC)c1OC [Example 19]	546 nM
CCCCc1nc2nc[nH]c2c2nc(-c3ccccc3O)nn12 [Example 6]	247 nM
CCCCc1nc2nc[nH]c2c2nc(-c3ccc(C(C)C)cc3)nn12 [Example 68]	> 10000 nM
CCCCc1nc2[nH]cnc2c2nc(-c3ccc(C)cc3)nn12 [Example 5]	184 nM
